- assay protocol: Clinical study #3: PK of edaravone oral formulation (formula #3), fasted vs after high-fat, standard or light meal; analysis of variance
- Format: in vivo, human
- measurement setup: male, human, plasma, po, 105 mg, 105 mg oral, formula #3, 8 h after high-fat meal, mean (n = 16)
quantity name: Tmax (min)

In [3]: df
Out[3]:
                                   compound  experimental_value
0  CC1=NN(c2ccccc2)C(=O)C1 [Edaravone, 3-methyl-1-phenyl-2-pyrazolin-5-one]                21.6

###

- assay protocol: Clinical study #3: PK of edaravone oral formulation (formula #3), fasted vs after high-fat, standard or light meal; analysis of variance
- Type: in vivo, human
- measurement setup: male, human, plasma, po, 105 mg, 105 mg oral, 4 hours after standard meal; read-out: Cmax Median
quantity name: Cmax (ng/mL)

>>> df
       structure_as_smiles  quantity_name  experimental_value
0  CC1=NN(c2ccccc2)C(=O)C1           Cmax                1740

###

- assay protocol: Clinical study #1: PK of edaravone oral formulation (formula #1), fasted vs 30 min after high-fat meal
- Type: in vivo
- measurement setup: male, human, plasma, 200 mg, 200 mg oral, formula #1, fasted, mean (n = 6)
quantity name: AUC(0-inf) (ng·h/mL)

In [3]: df
Out[3]:
                                   molecule  experimental_value
0  CC1=NN(c2ccccc2)C(=O)C1 [Edaravone, 3-methyl-1-phenyl-2-pyrazolin-5-one]                6310

###

# Papp A→B at 2 h, 10 μmol/L per entry
- assay protocol: in vitro
- measurement setup: human, Caco-2, pH 7.4
quantity name: Papp A→B at 2 h, 10 μmol/L

>>> df
                                   compound               quantity_name  experimental_value
0  OC[C@@H](O)[C@@H](O)[C@H](O)[C@H](O)CO [[^14C]Mannitol, [^14C]mannitol]  Papp A→B at 2 h, 10 μmol/L     0.53 ×10⁻⁶ cm/s
1  CC(C)NCC(O)COc1cccc2ccccc12 (centres unmarked) [[^3H]Propranolol, [^3H]propranolol]  Papp A→B at 2 h, 10 μmol/L     28.9 ×10⁻⁶ cm/s

###

- assay protocol: Clinical study #3: PK of edaravone oral formulation (formula #3), fasted vs after high-fat, standard or light meal; analysis of variance
- Assay type: in vivo, human
- measurement setup: male, human, plasma, po, 105 mg, 105 mg oral, formula #3, 4 h after standard meal, mean (n = 16)
quantity name: Tmax (min)

>>> df
                                   compound  experimental_value
0  CC1=NN(c2ccccc2)C(=O)C1 [Edaravone, 3-methyl-1-phenyl-2-pyrazolin-5-one]                26.4

###

- assay protocol: Clinical study #11: PK of edaravone oral formulation (formula #3) via nasopharyngeal gastric tube vs oral in healthy adults
- Format: in vivo, human
- measurement setup: human, plasma, po, 105 mg, Oral, analysis of variance; read-out: AUC0-∞ Least-square mean
quantity name: AUC(0-inf) (ng·h/mL)

>>> print(df.to_string())
       structure_as_smiles  unit_info  experimental_value
0  CC1=NN(c2ccccc2)C(=O)C1    ng·h/mL                2550
